# Test system: Staphylococcus epidermidis EPI1
# test details: MIC, standard agar-dilution assay (Table II)
# Assay type: cell-based
# Design: unit not given here
minimal inhibitory concentration (MIC) by entry:
experimental endpoint: minimal inhibitory concentration (MIC)

INSERT INTO results (molecule, study_system, endpoint_result) VALUES
  ('CCC1OC(=O)CC(O)C(C)C(OC2OC(C)C(OC(C)=O)C(N(C)C)C2OC(C)=O)C(CC=O)CC(C)C(=O)C=CC(C)=CC1COC(=O)COc1ccccc1 (centres unmarked) [Compound 34, 2'',4''-Di-O-acetyl-23-O-phenoxyacetyl-OMT]', 'Staphylococcus epidermidis EPI1', 0.25),
  ('CCC(=O)OC1C(C)OC(OC2C(CC=O)CC(C)C(=O)C=CC(C)=CC(CO)C(CC)OC(=O)CC(O)C2C)C(OC(=O)CC)C1N(C)C (centres unmarked) [Compound 4]', 'Staphylococcus epidermidis EPI1', 1),
  ('CCC1OC(=O)CC(O)C(C)C(OC2OC(C)C(OC(=O)CC(C)C)C(N(C)C)C2OC(C)=O)C(CC=O)CC(C)C(=O)C=CC(C)=CC1COC(C)=O (centres unmarked) [Compound 51, 2'',23-Di-O-Acetyl-4''-O-isovaleryl-OMT]', 'Staphylococcus epidermidis EPI1', 0.5),
  ('CCC1OC(=O)CC(O)C(C)C(OC2OC(C)C(O)C(N(C)C)C2O)C(CC=O)CC(C)C(=O)C=CC(C)=CC1COC(=O)Cc1cccnc1 (centres unmarked) [Compound 44, 23-O-(3-Pyridylacetyl)-OMT]', 'Staphylococcus epidermidis EPI1', 0.125),
  ('CCC1OC(=O)CC(O)C(C)C(OC2OC(C)C(O)C(N(C)C)C2O)C(CC=O)CC(C)C(=O)C=CC(C)=CC1COC(=O)CSc1ccc(Cl)c(Cl)c1 (centres unmarked) [Compound 38]', 'Staphylococcus epidermidis EPI1', 0.25),
  ('CCC1OC(=O)CC(O)C(C)C(OC2OC(C)C(OC(C)=O)C(N(C)C)C2OC(C)=O)C(CC=O)CC(C)C(=O)C=CC(C)=CC1CO (centres unmarked) [Compound 3, 2'',4''-Di-O-acetyl-OMT]', 'Staphylococcus epidermidis EPI1', 1),
  ('CCC1OC(=O)CC(O)C(C)C(OC2OC(C)C(OC(C)=O)C(N(C)C)C2OC(C)=O)C(CC=O)CC(C)C(=O)C=CC(C)=CC1COC(=O)CC(C)C (centres unmarked) [Compound 21, 2'',4''-Di-O-acetyl-23-O-i-valeryl-OMT]', 'Staphylococcus epidermidis EPI1', 0.5),
  ('CCC1OC(=O)CC(O)C(C)C(OC2OC(C)C(O)C(N(C)C)C2O)C(CC=O)CC(C)C(=O)C=CC(C)=CC1COC(=O)NCc1ccccc1 (centres unmarked) [Compound 76]', 'Staphylococcus epidermidis EPI1', 0.125),
  ('CCC1OC(=O)CC(O)C(C)C(OC2OC(C)C(OC(=O)CC(C)C)C(N(C)C)C2OC(C)=O)C(CC=O)CC(C)C(=O)C=CC(C)=CC1CO (centres unmarked) [Compound 49, 2''-O-Acetyl-4''-O-isovaleryl-OMT]', 'Staphylococcus epidermidis EPI1', 1),
  ('CCC1OC(=O)CC(O)C(C)C(OC2OC(C)C(O)C(N(C)C)C2OC(C)=O)C(CC=O)CC(C)C(=O)C=CC(C)=CC1COC(=O)Cc1ccc([N+](=O)[O-])cc1 (centres unmarked) [Compound 64]', 'Staphylococcus epidermidis EPI1', 0.125),
  ('CCC1OC(=O)CC(O)C(C)C(OC2OC(C)C(OC(C)=O)C(N(C)C)C2OC(C)=O)C(CC=O)CC(C)C(=O)C=CC(C)=CC1COC(=O)c1ccccc1 (centres unmarked) [Compound 6, 23-O-Benzoyl-2'',4''-Di-O-acetyl-OMT]', 'Staphylococcus epidermidis EPI1', 0.25),
  ('CCCCC(=O)OCC1C=C(C)C=CC(=O)C(C)CC(CC=O)C(OC2OC(C)C(OC(C)=O)C(N(C)C)C2OC(C)=O)C(C)C(O)CC(=O)OC1CC (centres unmarked) [Compound 19]', 'Staphylococcus epidermidis EPI1', 0.125),
  ('CCCCC(=O)OCC1C=C(C)C=CC(=O)C(C)CC(CC=O)C(OC2OC(C)C(O)C(N(C)C)C2O)C(C)C(O)CC(=O)OC1CC (centres unmarked) [Compound 20]', 'Staphylococcus epidermidis EPI1', 0.25),
  ('CCC1OC(=O)CC(O)C(C)C(OC2OC(C)C(O)C(N(C)C)C2OC(C)=O)C(CC=O)CC(C)C(=O)C=CC(C)=CC1COC(=O)CCc1ccccc1 (centres unmarked) [Compound 30]', 'Staphylococcus epidermidis EPI1', 0.25);

---

# Test system: Staphylococcus aureus X400
# test details: MIC, standard agar-dilution assay (Table II)
# Format: cell-based
# Set-up: unit not given here
# settings: Staphylococcus aureus X400, methicillin-resistant strain
experimental endpoint: minimal inhibitory concentration (MIC)

INSERT INTO measurements (compound, endpoint_result) VALUES
  ('CCC1OC(=O)CC(O)C(C)C(OC2OC(C)C(OC(C)=O)C(N(C)C)C2OC(C)=O)C(CC=O)CC(C)C(=O)C=CC(C)=CC1COC(=O)CSc1ccc(Cl)c(Cl)c1 (stereo not drawn)', 4),
  ('CCC1OC(=O)CC(O)C(C)C(OC2OC(C)C(O)C(N(C)C)C2O)C(CC=O)CC(C)C(=O)C=CC(C)=CC1COC(=O)C12CC3CC(CC(C3)C1)C2 (stereo not drawn)', 1),
  ('CCC(=O)OCC1C=C(C)C=CC(=O)C(C)CC(CC=O)C(OC2OC(C)C(O)C(N(C)C)C2OC(=O)CC)C(C)C(O)CC(=O)OC1CC (stereo not drawn)', 0.5),
  ('CCC1OC(=O)CC(O)C(C)C(OC2OC(C)C(OC(C)=O)C(N(C)C)C2OC(C)=O)C(CC=O)CC(C)C(=O)C=CC(C)=CC1COC(=O)c1ccccc1 (stereo not drawn)', 0.25),
  ('CCC1OC(=O)CC(O)C(C)C(OC2OC(C)C(O)C(N(C)C)C2O)C(CC=O)CC(C)C(=O)C=CC(C)=CC1COC(=O)COc1ccccc1 (stereo not drawn)', 0.25),
  ('CCC1OC(=O)CC(O)C(C)C(OC2OC(C)C(OC(C)=O)C(N(C)C)C2OC(C)=O)C(CC=O)CC(C)C(=O)C=CC(C)=CC1COC(=O)COc1ccccc1 (stereo not drawn)', 0.25),
  ('CCC1OC(=O)CC(O)C(C)C(OC2OC(C)C(O)C(N(C)C)C2O)C(CC=O)CC(C)C(=O)C=CC(C)=CC1COC(=O)NCc1ccccc1 (stereo not drawn)', 0.25),
  ('CCC1OC(=O)CC(O)C(C)C(OC2OC(C)C(O)C(N(C)C)C2O)C(CC=O)CC(C)C(=O)C=CC(C)=CC1COC(=O)c1ccccc1 (stereo not drawn)', 0.5),
  ('CCCC(=O)OCC1C=C(C)C=CC(=O)C(C)CC(CC=O)C(OC2OC(C)C(O)C(N(C)C)C2O)C(C)C(O)CC(=O)OC1CC (stereo not drawn)', 0.5),
  ('CCC1OC(=O)CC(O)C(C)C(OC2OC(C)C(OC(C)=O)C(N(C)C)C2OC(C)=O)C(CC=O)CC(C)C(=O)C=CC(C)=CC1COS(=O)(=O)c1ccc(C)cc1 (stereo not drawn)', 0.25),
  ('CCC1OC(=O)CC(O)C(C)C(OC2OC(C)C(O)C(N(C)C)C2O)C(CC=O)CC(C)C(=O)C=CC(C)=CC1COC(=O)CCc1ccccc1 (stereo not drawn)', 0.25),
  ('CCC1OC(=O)CC(O)C(C)C(OC2OC(C)C(O)C(N(C)C)C2OC(C)=O)C(CC=O)CC(C)C(=O)C=CC(C)=CC1COC(=O)COc1ccccc1 (stereo not drawn)', 0.125),
  ('CCC1OC(=O)CC(O)C(C)C(OC2OC(C)C(O)C(N(C)C)C2O)C(CC=O)CC(C)C(=O)C=CC(C)=CC1COS(=O)(=O)c1ccc(NC(C)=O)cc1 (stereo not drawn)', 2),
  ('CCC1OC(=O)CC(O)C(C)C(OC2OC(C)C(OC(C)=O)C(N(C)C)C2OC(C)=O)C(CC=O)CC(C)C(=O)C=CC(C)=CC1COC(=O)[C@H](NC(=O)OC(C)(C)C)c1ccccc1 (stereo partly drawn)', 1),
  ('CCC1OC(=O)CC(O)C(C)C(OC2OC(C)C(O)C(N(C)C)C2O)C(CC=O)CC(C)C(=O)C=CC(C)=CC1COC(=O)C(C)(C)C (stereo not drawn)', 0.25);

---

# Test system: Streptococcus pyogenes C203
# test details: ED50 in mice with experimental infections (Table IV)
# Format: in vivo
# settings: Streptococcus pyogenes, C203, oral, doses given 1 and 4 hours postinfection, read-out: ED50, Oral
# Method: The OMT ester derivatives of this invention have shown in vivo antimicrobial activity against experimental bacterial infections caused by gram-positive bacteria. When two doses of test compound were administered to mice with experimental infections, the activity observed was measured as an ED50 value [effective dose in mg/kg to protect 50% of the test animals: see Warren Wick, et al., J. Bacteriol. 81, 233-235 (1961)]. ^a mg/kg × 2; doses given 1 and 4 hours postinfection
experimental endpoint: ED50

INSERT INTO results (compound, endpoint_result) VALUES
  ('CCC1OC(=O)CC(O)C(C)C(OC2OC(C)C(O)C(N(C)C)C2O)C(CC=O)CC(C)C(=O)C=CC(C)=CC1COC(=O)CSc1ccc(Cl)c(Cl)c1 (stereo not shown)', '> 150 mg/kg'),
  ('CCC1OC(=O)CC(O)C(C)C(OC2OC(C)C(O)C(N(C)C)C2O)C(CC=O)CC(C)C(=O)C=CC(C)=CC1COC(=O)OC (stereo not shown)', '> 100 mg/kg'),
  ('CCC1OC(=O)CC(O)C(C)C(OC2OC(C)C(O)C(N(C)C)C2O)C(CC=O)CC(C)C(=O)C=CC(C)=CC1COC(=O)[C@H](O)c1ccccc1 (stereo partly shown)', '> 150 mg/kg'),
  ('CCC1OC(=O)CC(O)C(C)C(OC2OC(C)C(OC(=O)CC(C)C)C(N(C)C)C2OC(C)=O)C(CC=O)CC(C)C(=O)C=CC(C)=CC1CO (stereo not shown)', '> 100 mg/kg');
